System: Clostridioides difficile infection (spores, 027 Type)
Experiment: Clostridioides difficile infection (CDI) mouse model
Type: in vivo, C57BL/6 mice
Conditions: Day 9; 50 mg/kg
Listed molecules paired with reported number of mice with diarrhea
outcome-measure: number of mice with diarrhea

molecule: Cc1ncc([N+](=O)[O-])n1CCOC(=O)CC[C@@H](C)[C@H]1CC[C@H]2[C@@H]3[C@H](O)[C@H](O)[C@@H]4C[C@H](O)CC[C@]4(C)[C@H]3CC[C@]12C
reported: 5 number of mice
//
molecule: Cc1ncc([N+](=O)[O-])n1CCO
reported: 3 number of mice
//
molecule: C[C@H](CCC(=O)O)[C@H]1CC[C@H]2[C@@H]3[C@@H](O)C[C@@H]4C[C@H](O)CC[C@]4(C)[C@H]3CC[C@]12C [UDCA, ursodeoxycholic acid, reference compound]
reported: 5 number of mice
//
molecule: Cc1ncc([N+](=O)[O-])n1CCOC(=O)CC[C@@H](C)[C@H]1CC[C@H]2[C@@H]3[C@@H](O)C[C@@H]4C[C@H](O)CC[C@]4(C)[C@H]3CC[C@]12C
reported: 1 number of mice

====

System: Clostridioides difficile infection (spores, 027 Type)
Assay: Clostridioides difficile infection (CDI) mouse model
Assay type: in vivo, C57BL/6 mice
Settings: Day 7; 50 mg/kg
outcome-measure: number of mice with diarrhea

molecule: Cc1ncc([N+](=O)[O-])n1CCOC(=O)CC[C@@H](C)[C@H]1CC[C@H]2[C@@H]3[C@@H](O)C[C@@H]4C[C@H](O)CC[C@]4(C)[C@H]3CC[C@]12C
outcome-measure: number of mice with diarrhea
reported: 1 number of mice

molecule: Cc1ncc([N+](=O)[O-])n1CCOC(=O)CC[C@@H](C)[C@H]1CC[C@H]2[C@@H]3[C@H](O)[C@H](O)[C@@H]4C[C@H](O)CC[C@]4(C)[C@H]3CC[C@]12C
outcome-measure: number of mice with diarrhea
reported: 5 number of mice

molecule: Cc1ncc([N+](=O)[O-])n1CCO
outcome-measure: number of mice with diarrhea
reported: 3 number of mice

molecule: C[C@H](CCC(=O)O)[C@H]1CC[C@H]2[C@@H]3[C@@H](O)C[C@@H]4C[C@H](O)CC[C@]4(C)[C@H]3CC[C@]12C [UDCA, ursodeoxycholic acid, reference compound]
outcome-measure: number of mice with diarrhea
reported: 4 number of mice

====

number of mice with diarrhea values for the molecules below.
System: Clostridioides difficile infection (spores, 027 Type)
Test: Clostridioides difficile infection (CDI) mouse model
Type: in vivo, C57BL/6 mice
Conditions: Day 4; 50 mg/kg

molecule: Cc1ncc([N+](=O)[O-])n1CCOC(=O)CC[C@@H](C)[C@H]1CC[C@H]2[C@@H]3[C@H](O)[C@H](O)[C@@H]4C[C@H](O)CC[C@]4(C)[C@H]3CC[C@]12C
subject-of-test: Clostridioides difficile infection (spores, 027 Type)
number of mice with diarrhea: 10 (10) number of mice
--
molecule: Cc1ncc([N+](=O)[O-])n1CCO
subject-of-test: Clostridioides difficile infection (spores, 027 Type)
number of mice with diarrhea: 8 number of mice
--
molecule: Cc1ncc([N+](=O)[O-])n1CCOC(=O)CC[C@@H](C)[C@H]1CC[C@H]2[C@@H]3[C@@H](O)C[C@@H]4C[C@H](O)CC[C@]4(C)[C@H]3CC[C@]12C
subject-of-test: Clostridioides difficile infection (spores, 027 Type)
number of mice with diarrhea: 7 number of mice
--
molecule: C[C@H](CCC(=O)O)[C@H]1CC[C@H]2[C@@H]3[C@@H](O)C[C@@H]4C[C@H](O)CC[C@]4(C)[C@H]3CC[C@]12C [UDCA, ursodeoxycholic acid, reference compound]
subject-of-test: Clostridioides difficile infection (spores, 027 Type)
number of mice with diarrhea: 9 number of mice

====

System: H. pylori ATCC 26695
Experiment: MIC determination using broth microdilution method, Helicobacter pylori
Format: cell-based
Conditions: ATCC26695, H. pylori ATCC 26695(S), metronidazole-susceptible strain, read-out: MIC
Item-by-item account of MIC
outcome-measure: MIC (µg/mL)

compound: Cc1ncc([N+](=O)[O-])n1CCOC(=O)CC[C@@H](C)[C@H]1CC[C@H]2[C@@H]3C[C@H](O)[C@@H]4C[C@H](O)CC[C@]4(C)[C@H]3CC[C@]12C [SCUT1-5]
comparison-operator: =
reported: 8

compound: Cc1ncc([N+](=O)[O-])n1CCO [Metronidazole]
comparison-operator: =
reported: 4

compound: Cc1ncc([N+](=O)[O-])n1CCOC(=O)CC[C@@H](C)[C@H]1CC[C@H]2[C@@H]3C(=O)C[C@@H]4C[C@H](O)CC[C@]4(C)[C@H]3C[C@H](O)[C@]12C [SCUT1-8]
comparison-operator: =
reported: 8

compound: Cc1ncc([N+](=O)[O-])n1CCOC(=O)CC[C@@H](C)[C@H]1CC[C@H]2[C@@H]3[C@H](O)[C@H](O)[C@@H]4C[C@H](O)CC[C@]4(C)[C@H]3CC[C@]12C [SCUT1-6]
comparison-operator: =
reported: 4

compound: Cc1ncc([N+](=O)[O-])n1CCOC(=O)CC[C@@H](C)[C@H]1CC[C@H]2[C@@H]3[C@H](O)C[C@@H]4C[C@H](O)CC[C@]4(C)[C@H]3CC[C@]12C [SCUT1-3]
comparison-operator: =
reported: 4

compound: C[C@H](CCC(=O)O)[C@H]1CC[C@H]2[C@@H]3[C@@H](O)C[C@@H]4C[C@H](O)CC[C@]4(C)[C@H]3CC[C@]12C [UDCA, ursodeoxycholic acid, reference compound]
comparison-operator: >
reported: 32

compound: Cc1ncc([N+](=O)[O-])n1CCOC(=O)CC[C@@H](C)[C@H]1CC[C@H]2[C@@H]3[C@H](O)C[C@H]4C[C@H](O)CC[C@]4(C)[C@H]3CC[C@]12C [SCUT1-4]
comparison-operator: =
reported: 4

compound: Cc1ncc([N+](=O)[O-])n1CCOC(=O)CC[C@@H](C)[C@H]1CC[C@H]2[C@@H]3[C@@H](O)C[C@@H]4C[C@H](O)CC[C@]4(C)[C@H]3CC[C@]12C [SCUT1-2]
comparison-operator: =
reported: 4

====

Test system: Clostridioides difficile infection (spores, 027 Type)
Test: Clostridioides difficile infection (CDI) mouse model
Type: in vivo, C57BL/6 mice
Settings: Day 3 (before the administration); 50 mg/kg groups; 10 animals per group

compound: Cc1ncc([N+](=O)[O-])n1CCOC(=O)CC[C@@H](C)[C@H]1CC[C@H]2[C@@H]3[C@@H](O)C[C@@H]4C[C@H](O)CC[C@]4(C)[C@H]3CC[C@]12C
number of surviving mice: 10 (10) number of mice
//
compound: Cc1ncc([N+](=O)[O-])n1CCO
number of surviving mice: 10 number of mice
//
compound: C[C@H](CCC(=O)O)[C@H]1CC[C@H]2[C@@H]3[C@@H](O)C[C@@H]4C[C@H](O)CC[C@]4(C)[C@H]3CC[C@]12C [UDCA, ursodeoxycholic acid, reference compound]
number of surviving mice: 10 number of mice
//
compound: Cc1ncc([N+](=O)[O-])n1CCOC(=O)CC[C@@H](C)[C@H]1CC[C@H]2[C@@H]3[C@H](O)[C@H](O)[C@@H]4C[C@H](O)CC[C@]4(C)[C@H]3CC[C@]12C
number of surviving mice: 10 number of mice

====

Tested on: Clostridioides difficile infection (spores, 027 Type)
Assay: Clostridioides difficile infection (CDI) mouse model
Assay type: in vivo, C57BL/6 mice
Settings: Day 7; 50 mg/kg; 10 animals per group

molecule: Cc1ncc([N+](=O)[O-])n1CCOC(=O)CC[C@@H](C)[C@H]1CC[C@H]2[C@@H]3[C@@H](O)C[C@@H]4C[C@H](O)CC[C@]4(C)[C@H]3CC[C@]12C
number of surviving mice: 10 number of mice

molecule: Cc1ncc([N+](=O)[O-])n1CCOC(=O)CC[C@@H](C)[C@H]1CC[C@H]2[C@@H]3[C@H](O)[C@H](O)[C@@H]4C[C@H](O)CC[C@]4(C)[C@H]3CC[C@]12C
number of surviving mice: 10 number of mice

molecule: Cc1ncc([N+](=O)[O-])n1CCO
number of surviving mice: 8 number of mice

molecule: C[C@H](CCC(=O)O)[C@H]1CC[C@H]2[C@@H]3[C@@H](O)C[C@@H]4C[C@H](O)CC[C@]4(C)[C@H]3CC[C@]12C [UDCA, ursodeoxycholic acid, reference compound]
number of surviving mice: 10 number of mice
